System: VSMC
procedure_details: Antiproliferative activity against PDGF-BB-induced rat VSMC proliferation at 50 uM after 24 hrs by WST1 (CCK-8) assay
Assay type: functional
Calls of active or inactive are those of the source. The rule behind the calls is not given here.
Field 'call' accepts active, inactive

C[C@@H]1O[C@@H](OC[C@H]2O[C@@H](Oc3cc(O)c4c(=O)cc(-c5ccc(O)cc5)oc4c3)[C@H](O)[C@@H](O)[C@@H]2O)[C@H](O)[C@H](O)[C@H]1O active
C=C[C@](C)(O)CC/C=C(\C)CO[C@@H]1O[C@H](CO)[C@@H](O)[C@H](O)[C@H]1O active

Turning to the following molecule.
Per the records of this test, what outcome belongs to OC[C@H]1O[C@@H](OCCc2ccccc2)[C@H](O)[C@@H](O)[C@@H]1O ? inactive
